Entry source: patent US7018989B2

assay: Minimum cytotoxic concentration in MSV assay; assay type: cell-based; details: Table 6
MEASURED METRIC: MCC MSV: Minimum cytotoxic concentration in MSV assay

# COMPOUND, RESULT
records = [
    ("Cc1cn(C2C=CC(COP(=O)(O)N[C@H](C)C(=O)O)O2)c(=O)[nH]c1=O (stereo partly drawn)", ">100"),
]

For every item in the list below, what is its measured MCC MSV: Minimum cytotoxic concentration in MSV assay?
1. CCOC(=O)COP(=O)(OCC1C=CC(n2cc(C)c(=O)[nH]c2=O)O1)Oc1ccccc1 (stereo not drawn)
2. Cc1cn(C2C=CC(COP(=O)(O)NC(CCC(=O)O)C(=O)O)O2)c(=O)[nH]c1=O (stereo not drawn)

1: >100; 2: >100

###

Consider the following compounds; for each one, report its MCC MSV: Minimum cytotoxic concentration in MSV assay.
assay: Minimum cytotoxic concentration in MSV assay; format: cell-based; conditions: MSV assay

Below: 3 compounds and their reported MCC MSV: Minimum cytotoxic concentration in MSV assay.
# COMPOUND, RESULT
records = [
    ("Nc1ncnc2c1ncn2C1CCC(CO)O1 (stereo not shown)", ">100"),
    ("Cc1cn(C2CC(N=[N+]=[N-])C(COP(=O)(O)NC(C)C(=O)O)O2)c(=O)[nH]c1=O (stereo not shown)", ">100"),
    ("COC(=O)C(C)NP(=O)(OC[C@@H]1CC[C@H](n2cnc3c(N)ncnc32)O1)Oc1ccccc1 (stereo partly shown)", ">20"),
]

Please look up its MCC MSV: Minimum cytotoxic concentration in MSV assay: COC(=O)C(Cc1ccccc1)NP(=O)(OCC1OC(n2cc(C)c(=O)[nH]c2=O)CC1N=[N+]=[N-])Oc1ccccc1 (stereo not shown)
>100

###

test system: HIV1 d4T-Sensitive; assay: HIV1 in HeLa cells, d4T-sensitive strain; format: cell-based, HIV-1; settings: Human immunodeficiency virus 1, HeLa; Table 4
MEASURED METRIC: EC50 (nM)
Give bare numbers, in nM.

Find EC50 (HIV1 d4T-Sensitive) for the entry Cc1cn([C@H]2C=C[C@@H](CO)O2)c(=O)[nH]c1=O [d4T, 2′,3′-dideoxy-2′,3′-didehydrothymidine, reference compound]
860

###

test system: CEM cells; assay: Toxicity to CEM cells; format: cell-based, human; settings: Table 6; mean of two or more repeat experiments
MEASURED METRIC: CC50 (µM)
Answers are plain numbers, in µM.

# MOLECULE, CC50 / µM
rows = [
    ("CCCCCCOC(=O)[C@H](C)NP(=O)(OCC1C=CC(n2cc(C)c(=O)[nH]c2=O)O1)Oc1ccccc1 (stereo partly shown)", 48),
]

Below are some molecules; for each one, tell me its CC50.
1. CC(NP(=O)(OCC1C=CC(n2ccc(=O)[nH]c2=O)O1)Oc1ccccc1)C(=O)OCc1ccccc1 (stereo not shown)
2. CCO[PH](=O)OCC1C=CC(n2cc(C)c(=O)[nH]c2=O)O1 (stereo not shown)

1. 115
2. 115

###

test system: III-B strain of HIV-1; assay: microbe, parasite or virus in culture; type: cell-based
Exercise: state measured Selectivity CC50/EC50 × 10^3 for each of the molecules provided.

Answered examples (6):
# MOLECULE, MEASURED METRIC, RESULT
data = [
    ("Cc1cn([C@H]2C=C[C@@H](COP(=O)(NC(Cc3ccccc3)C(=O)OC(C)(C)C)Oc3ccccc3)O2)c(=O)[nH]c1=O (stereo partly shown) [Compound 878]", "Selectivity CC50/EC50 × 10^3", "0.9 × 10^3"),
    ("COC(=O)C(C)NP(=O)(OCC1C=CC(n2cc(C)c(=O)[nH]c2=O)O1)Oc1ccc(F)cc1 (stereo not shown) [Compound 327]", "Selectivity CC50/EC50 × 10^3", "62.5 × 10^3"),
    ("COC(=O)C(CCSC)NP(=O)(OCC1C=CC(n2cc(C)c(=O)[nH]c2=O)O1)Oc1ccccc1 (stereo not shown) [Compound 867]", "Selectivity CC50/EC50 × 10^3", ">62.5 × 10^3"),
    ("Cc1cn(C2C=CC(COP(=O)(Oc3ccc(Br)cc3Br)N(C)C(C)C(=O)O)O2)c(=O)[nH]c1=O (stereo not shown) [Compound 776]", "Selectivity CC50/EC50 × 10^3", "125 × 10^3"),
    ("Cc1cn([C@H]2C=C[C@@H](CO)O2)c(=O)[nH]c1=O [d4T, 2′,3′-dideoxy-2′,3′-didehydrothymidine, reference compound]", "Selectivity CC50/EC50 × 10^3", "0.6 × 10^3"),
    ("CCCCCCOC(=O)[C@H](C)NP(=O)(OCC1C=CC(n2cc(C)c(=O)[nH]c2=O)O1)Oc1ccccc1 (stereo partly shown) [Compound 862]", "Selectivity CC50/EC50 × 10^3", "417 × 10^3"),
]

Next molecule, please.
Look at this molecule and give its reported Selectivity CC50/EC50 × 10^3. COC(=O)C(CC(C)C)NP(=O)(OCC1C=CC(n2cc(C)c(=O)[nH]c2=O)O1)Oc1ccccc1 (stereo not shown) [Compound 864]
>62.5 × 10^3
